test: Tissue analysis (internal tissue dose of parent PFAS, bioconcentration factor); assay type: in vivo, Danio rerio; conditions: among chemicals assessed, from BCF values
Observation Type: Bioaccumulation ranking

[[record]]
compound = "O=C(O)C(F)(F)C(F)OC(F)(F)C(F)(F)C(F)(F)OC(F)(F)F (stereo not shown) [ADONA, 4,8-Dioxa-3H-perfluorononanoate]"
observation_type = "Bioaccumulation ranking"
result_value = "least bioaccumulative"

[[record]]
compound = "O=S(=O)(O)C(F)(F)C(F)(F)OC(F)(C(F)(F)F)C(F)(F)OC(F)=C(F)F (stereo not shown)"
observation_type = "Bioaccumulation ranking"
result_value = "least bioaccumulative"

[[record]]
compound = "O=C(O)C(F)(F)C(F)(F)C(F)(F)C(F)(F)C(F)(F)F"
observation_type = "Bioaccumulation ranking"
result_value = "least bioaccumulative"


---

experiment: Tissue analysis (internal tissue dose of parent PFAS, bioconcentration factor); assay type: in vivo, Danio rerio; settings: zebrafish (Danio rerio), whole larvae (pools of 10, homogenised), other: waterborne exposure in the well medium; nominal 44.8 μM in DI water (Study 2) daily 0–5 dpf, 6 dpf larvae; dry weight 44 μg per larva; read-out: Measured tissue dose
Observation Type: concentration at 6 dpf (ng/g)

[[record]]
molecule = "O=C(O)C(F)(OC(F)(F)C(F)(F)C(F)(F)F)C(F)(F)F (stereo not shown) [GenX Free Acid, Perfluoro-2-propoxypropanoic acid]"
observation_type = "concentration at 6 dpf"
result_value = 2020


---

test system: zebrafish; assay: Developmental neurotoxicity (DNT) assay, light/dark locomotor behavior test; type: in vivo, Danio rerio; settings: Study 3; dark 2; daily 0–5 dpf, tested 6 dpf; vs 0.4% DMSO
Observation Type: Concentration causing hyperactivity in D2 period

[[record]]
smiles_code = "O=S(=O)(O)C(F)(F)C(F)(F)C(F)(F)C(F)(F)C(F)(F)C(F)(F)C(F)(F)F"
result_value = "no effect"

[[record]]
smiles_code = "O=S(=O)(O)C(F)(F)C(F)(F)C(F)(F)C(F)(F)C(F)(F)F"
result_value = "no effect"

[[record]]
smiles_code = "O=S(=O)(O)C(F)(F)C(F)(F)C(F)(F)C(F)(F)C(F)(F)C(F)(F)F"
result_value = "17.6 µM"

[[record]]
smiles_code = "O=S(=O)(O)C(F)(F)C(F)(F)C(F)(F)C(F)(F)C(F)(F)C(F)(F)C(F)(F)C(F)(F)F"
result_value = "no effect"


---

experiment: Tissue analysis (internal tissue dose of parent PFAS, bioconcentration factor); type: in vivo, Danio rerio; settings: nominal 25.1 μM; 6-d zebrafish assay; 0.4% DMSO
Observation Type: log10 BCFdry (log10 of the value in L/kg)

[[record]]
compound = "O=C(O)C(F)(F)C(F)OC(F)(F)C(F)(F)C(F)(F)OC(F)(F)F (centres unmarked) [ADONA, 4,8-Dioxa-3H-perfluorononanoate]"
result_value = -0.02

[[record]]
compound = "O=S(=O)(O)C(F)(F)C(F)(F)C(F)(F)C(F)(F)C(F)(F)C(F)(F)F"
result_value = 0.90

[[record]]
compound = "O=C(O)C(F)(F)C(F)(F)C(F)(F)C(F)(F)C(F)(F)F"
result_value = -0.34

[[record]]
compound = "O=S(=O)(O)C(F)(F)C(F)(F)OC(F)(C(F)(F)F)C(F)(F)OC(F)=C(F)F (centres unmarked)"
result_value = 0.49

[[record]]
compound = "O=C(O)C(F)(F)C(F)(F)C(F)(F)C(F)(F)C(F)(F)C(F)(F)C(F)(F)F"
result_value = 1.07


---

Assay: Tissue analysis (internal tissue dose of parent PFAS, bioconcentration factor)
Assay type: in vivo, Danio rerio
Details: zebrafish (Danio rerio), whole larvae (pools of 10, homogenised), other: waterborne exposure in the well medium; nominal 1.8 μM daily 0–5 dpf, 6 dpf larvae; 0.4% DMSO; dry weight 44 μg per larva; read-out: Measured tissue dose
Description: Zebrafish were exposed to 25.1, 44.8, or 80.0μM ADONA, PFOA, PFESA1, or PFHxA, 14.0, 25.1, or 44.8μM PFHxS, or 1.0, 1.8, or 3.1μM PFOS, or 0.4% DMSO. The highest concentration evaluated was the no observed effect concentration (NOEC) determined in Study 1. […] Tissue samples were prepared by protein precipitation. […] Standards and samples were analyzed with Vanquish UPLC and Orbitrap Fusion mass spectrometer (Thermo Electron) operated in negative ESI mode. […]
Observation Type: concentration at 6 dpf (ng/g)

[[record]]
smiles_code = "O=S(=O)(O)C(F)(F)C(F)(F)C(F)(F)C(F)(F)C(F)(F)C(F)(F)C(F)(F)C(F)(F)F"
observation_type = "concentration at 6 dpf"
units_symbol = "ng/g"
result_value = 422000

